Give binding score for every item shown.
Biological target: T1, Bdf1 bromodomain 1 (GST-tagged, WT) (Saccharomyces cerevisiae (strain ATCC …, UniProt P35817))
T1 chain: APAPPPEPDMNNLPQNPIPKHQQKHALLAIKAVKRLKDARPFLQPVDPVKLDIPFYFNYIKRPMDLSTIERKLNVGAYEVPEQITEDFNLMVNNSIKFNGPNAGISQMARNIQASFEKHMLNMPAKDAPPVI
Test: histone peptide array probed with recombinant GST-bromodomain, signal normalised to myc peptide control
Non-standard residues stand in square brackets, D forms with d. No end group written: not given here. Arg(Me2a) = CN(C)C(=N)NCCC[C@H](N)C(=O)O; Lys(Me3) = C[N+](C)(C)CCCC[C@H](N)C(=O)O; Arg(Me2s) = CN=C(NC)NCCC[C@H](N)C(=O)O; pT = C[C@@H](OP(=O)(O)O)[C@H](N)C(=O)O; Lys(Me2) = CN(C)CCCC[C@H](N)C(=O)O; pS = N[C@@H](COP(=O)(O)O)C(=O)O; Lys(Me) = CNCCCC[C@H](N)C(=O)O

For ARTKQTARKSTGGKAPRKQ (A R T Kac Q T A Rme2s Kme2 S T G G K A P R K Q) the binder record lists binding score as 0.00251

Note to self: binding score recorded for ARTKQTARKSTGGKAPRKQ (A Rme2s T Kme1 Q T A Rme2s Kme1 S T G G K A P R K Q) was 0.0134

In plain terms, PRKQLATKAA[Arg(Me2s)]KSAPATGG has a documented binding score of 0

The binder identified as ARTKQTARKSTGGKAPRKQ (A Rme2a T Kme3 Q T A Rme2s Kme2 S T G G K A P R K Q) registered its binding score at 0.00269

Reported binding score ( ARTKQTARKSTGGKAPRKQ (A R T Kme2 Q T A Rme2a Kme3 S T G G K A P R K Q) ) = 0

binding score measured on SGRGKQGGK(Ac)ARAKAKSRSS = 0.00717

Per the record, A[Arg(Me2a)]TK(Ac)QTA[Arg(Me2s)][Lys(Me3)]STGGKAPRKQ has binding score of 0.00681

Record summary for PDPAK(Ac)SAPAPKK(Ac)G[pS]K(Ac)KAVT [H2B 1-19] : reported binding score = 0

Data point: A[Arg(Me2s)][pT][Lys(Me)]QTARKSTGGKAPRKQ ; binding score = 0.00323

Lab note: ARTKQTA[Arg(Me2a)][Lys(Me)]S[pT]GGKAPRKQ gave binding score of 0

The measured binding score associated with ARTKQTARKSTGGKAPRKQ (A Rme2s T Kac Q T A Rme2s K S T G G K A P R K Q) reads 0

In plain terms, ARTKQTARKSTGGKAPRKQ (A Rme2a T Kme1 Q T A Rme2a Kac S T G G K A P R K Q) has a documented binding score of 0.0124

binding score for ARTKQTARKSTGGKAPRKQ (A Rme2s T Kme2 Q T A Rme2a Kme3 S T G G K A P R K Q) is 0

Record [pS]GRGK(Ac)QGGKARAKAKSRSS , field binding score: 0.00197

Notebook: SGRGKGGKGLGKGGAKRHR (S G R G Kac G G K G L G K G G A K R H R) , binding score read as 0.00681

Noted for ARTKQTARKSTGGKAPRKQ (A Rme2a pT Kme3 Q T A R K S T G G K A P R K Q) : its binding score reads 0.00789

The value of binding score measured for the binder ARTKQTARKSTGGKAPRKQ (A Rme2a T Kme3 Q T A Rme2s Kac S T G G K A P R K Q) turned out to be 0.0181

So for ARTKQTARKSTGGKAPRKQ (A R T Kme1 Q T A Rme2a Kme3 S T G G K A P R K Q) , the logged binding score turned out to be 0.00179

Form field binding score, entry SGRGKGGKGLGKGGAKRHR (S G R G K G G K G L G Kac G G A Kac R H R) : 0.206

# binding score of A[Arg(Me2s)]TK(Ac)QTA[Arg(Me2a)][Lys(Me3)]STGGKAPRKQ = 0.0145

Entry PRKQLATKAA[Arg(Me2s)][Lys(Me2)][pS]APATGG , binding score reported as 0.017

The recorded binding score for entry ARTKQTARKSTGGKAPRKQ (A R T K Q T A R Kme1 S pT G G K A P R K Q) equals 0.0122

Notebook: ARTKQTARKSTGGKAPRKQ (A Rme2a T Kac Q T A Rme2s Kme1 S T G G K A P R K Q) , binding score read as 0

For A[Arg(Me2s)]T[Lys(Me)]QTA[Arg(Me2s)][Lys(Me2)]STGGKAPRKQ the binder record lists binding score as 0.00197
